log10 of CC50 by entry:
# METHOD_NOTES: Anticlonogenic activity against HEK293 cells assessed as inhibition of colony formation incubated for 48 hrs measured after 6 days by crystal violet staining based assay
# Assay type: functional
# RECORDED_CONDITIONS: Homo sapiens, read-out: LC50 (the source's name)
REPORTED_ENDPOINT: log10 of CC50 (log10 of the value in nM)

* O=c1c(-c2ccccc2)cnc2c(OCc3ccccc3)cccn12 | 3.58
* O=c1cc(-c2ccc(Cl)cc2)nc2ccccn12 | 3.30
* O=c1c(-c2cc(O)cc(O)c2)cnc2ccccn12 | 3.38
* O=Cc1ccc(-c2cc(=O)n3ccccc3n2)cc1 | 3.40
* COc1cc(-c2cnc3ccccn3c2=O)cc(OC)c1OC | 3.26
* COc1cc([C@@H]2c3cc4c(cc3[C@@H](O[C@@H]3O[C@@H]5CO[C@@H](C)O[C@H]5[C@H](O)[C@H]3O)[C@H]3COC(=O)[C@H]23)OCO4)cc(OC)c1O [ETOPOSIDE] | 4.30
* Cc1ccc(-c2cnc3ccccn3c2=O)cc1 | 3.40
